molecular target: Recombinant soluble trimeric human BAFF (furin-cleaved human BAFF 134-285) (human, UniProt Q9Y275 134-285); assay: cell-based or functional assay
experimental-endpoint: Soluble trimeric huBAFF (50 pM) Neutralization IC50
// note: answer is a bare numeric in pM

Please look up its Soluble trimeric huBAFF (50 pM) Neutralization IC50: 1070A6B7 (antibody, V domains shown) VH: QVPLQQPGAEMVRPGASMRLSCKASGYTFPGYWMHWVKQRPRQGLEWIAKIDPSDSETHYNQNFKDKATLTVDKYSNTVYMQLNSLTSEDSAVYYCANEGWDSLTKVWFGWWGQGTLVTVSA VL: DVVMTQTPLSLPVSLGDQASISCRCSQSLVHSNGNTYLHWYLQKPGQSPKLLIYKVSDRFSGVPDRFSGSGSGTDFTLRISRVEADDLGVYFCSQSTHVPLTFGAGTKLELK 43

Please look up its Soluble trimeric huBAFF (50 pM) Neutralization IC50: 332C1B12 (antibody, V domains shown) VH: QVQLQQPGAELVKPGASVKLSCKASGYTFTNDNYWMNWMKQRPGRGLEWIGRIRPSDSETHYNQKFTNKATLTVDKSSSTAYIQLSSLTSVDSAVYYCARSWEDLLLRSMEDYFDYWGQGTTLTVSS VL: DIVLTQSPASLPVSLGQRATISCRASKGVSTSSYTFIHWYQQKPGQPPKLLIKYASNLESGVPARFSGSGSGTDFTLNIHPVEEEDVATYYCQHSREFPRTFGGGTKLEIK 99

Please look up its Soluble trimeric huBAFF (50 pM) Neutralization IC50: 431G5A3 (antibody, V domains shown) VH: QLQQSGPELVKPGASVKLSCKASGYTFTDYSIHWVKQSPGQGLEWIGWIYPGSDNTKYNDKFKGKASMTADKSSRTVYMHLSSLTSEESAVYFCARDYRRYYAMDYWGQGTSVTVSS VL: KIVLTQSSASLAVSLGQRATISCRASESVDRYGNSLMHWYQQKPGQPPKLLIYIASNLESGVPARFSGSGSRTDFTLTIDPVEADDAATYYCQQNNEDPRTFGGGTKLEIK 28

Please look up its Soluble trimeric huBAFF (50 pM) Neutralization IC50: 606H7F8 (antibody, V domains shown) VH: VQLVESGGGLVKPGGSLKLSCAASGFTFSSYDMSWVRQTPEKRLEWVAAINSYGVNTYYPDTVKDRFTISRDNAKNTLYLQMSSLRSEDTALYYCARLLIGPYYYAMDYWGQGTSVTVSS VL: DIQMTQSPASLSASVGETVTITCRASGNIHNYLAWYQQKQGKSPQLLVYNAKTLADGVPSRFSGSGSGTQFSLKINSLQPEDFGSYYCQHFWSTPYTFGGGTKLEIK 29

Please look up its Soluble trimeric huBAFF (50 pM) Neutralization IC50: 319B8A12 (antibody, V domains shown) VH: KVTLKESGPGILQPSQTLSLTCSFSGFSLRTFGMGVGWIRQPSGKGLEWLAHIWWNDEKYYNPDLKSRLTVSKDSSKNQVFLTIANVDTSDTAPYYCTRVGPSISTVAEGFPYWGQGTLVTVSA VL: DIVMTQSQKFVSTRVGDRVSITCKASQNVGAAVVWYQQKSGQPPKLLIRSASNRYIGVPDRFTGSGSGTDFTLTVSDVQSGDLADYFCQQYSNYPLTFGAGTKLELTR 91

Please look up its Soluble trimeric huBAFF (50 pM) Neutralization IC50: 537G7A6 (antibody, V domains shown) VH: QVQLKESGPGLVAPSQSLSITCTVSGFSLSRYSVHWIRQSPGKGLEWLGMIWGGGNTDYNSGLKSRLSISKDNSKSQVFLKMNSLENDDTAMYYCASPSLYYYDVAWFPYWGQGTLVTVSA VL: DIVLTQSPASLAVSVGQRATVSCRVSESVDRYADSFMHWYQQKPGQPPKLLIYLASNLESGVPARFSGSGSRTDFTLTIDPVEADDAATYYCQQNKEDPYTFGGGTKLELK 28

Please look up its Soluble trimeric huBAFF (50 pM) Neutralization IC50: 384D5A2 (antibody, V domains shown) VH: QVTLKESGPGILQPSQTLSLTCSFSGFSLNTYGMGVGWIRQPSGKGLEWLANIWWNDDKYYNSALKSRLAISKDASNSQVFLKISSVDTTDTATYYCAQVAATIVTTYGAWFAYWGQGTLVTVSA VL: DIQMTQSPASLSVSVGETVTITCRSSENIYSSLAWYQQKQGKSPQLLVYAATNLAKGVPSRFSGSGSGTQYSLKINSLQSEDFGSYFCQHFWGSPFAFGSGTKLEIK 42

Please look up its Soluble trimeric huBAFF (50 pM) Neutralization IC50: 320F9C5 (antibody, V domains shown) VH: QVTLKESGPGILQSSQTLSLTCSFSGFSLRTFGMGVGWIRQPSGKGLEWLAHIWWNDDKSSHPALKSRLTISKDTSKNQVFLKIANVDTAETATYYCVRIGPSITTVAEGFAYWGQGTLVTVSA VL: DIVMTQSQKFMSTTVGDRVSITCKASQNVGSVVAWYQQRPGQSPTLLIYSASNRYTGVPDRFTGSGSGTDFTLTISNMQSEDLADYFCQQYSSYPLTFGAGTKLELK 110

Please look up its Soluble trimeric huBAFF (50 pM) Neutralization IC50: 409F12A11 (antibody, V domains shown) VH: IQLQQSGPELVKPGASMKISCKASGYTFTDKYINWVKQRPGQGLEWIGWIYPGSGNTKYNEKFKGMATLTVDTSSNTAYIHLSSLTSEDSAVYFCARGIIYYYDGSYPYALDYWGQGTSVTVSS VL: DIVLTQSPASLALSLGQRATISCRATKGVSKSGYSYMHWYQQKPGQPPKLLIYLASNLESGVPARFSGSGSGTDFTLNIHPVEEEDVATYYCQHSRELPLTFGAGTKLELK 31

Please look up its Soluble trimeric huBAFF (50 pM) Neutralization IC50: 444G1A10 (antibody, V domains shown) VH: RVQLKESGPGLVAPSQSLFITCTVSGFSLTTYEINWVRQSPGKGLEWLGVIWTGGTTKYNSAFISRLSITKDNSKSLVFLKMSSLQTDDTAIYYCVREGRRYYAMDYWGQGTSVTVSS VL: NIVLTQSPASLAVSLGQRATISCRASESVDSYGNSFMFWFQQKPGQAPKLLIFLTSNLESGVPARFSGSGSRTDFTLTIDRVEADDAATYYCQQSNEDPRTFGGGTKLEIK 25
